- MEASURED_ON: recombinant human GITR (Cat No. 13643-H08H, Lot No. LC12JA2509, Sino Biological) (human) (UniProt Q9Y5U5)
- METHOD_NOTES: SPR Biacore 8K, single-cycle kinetics, IgG in supernatant captured on Protein A, GITR as analyte
PARAMETER_MEASURED: Relative KD (fold vs VH0/VL0)
Answers are plain numbers.

[
  {
    "BINDER": "anti-GITR 51B VH5/VL4 humanized antibody (human IgG1, kappa) (antibody, V domains shown) VH: QVQLVQSGAEVKKPGASVKVSCKTTGYRFTGYWIDWVRQPPGKGLEWIGEILPGSGATYYSENFKGKVTITADTSTDTAYMELSSLRSEDTAIYYCARKGGYYAMDYWGQGTLVTVSS VL: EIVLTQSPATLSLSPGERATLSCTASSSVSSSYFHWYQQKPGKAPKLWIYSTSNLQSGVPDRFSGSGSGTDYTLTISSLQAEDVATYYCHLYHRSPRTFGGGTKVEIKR",
    "Relative KD (fold vs VH0/VL0)": 2.4
  },
  {
    "BINDER": "anti-GITR 51B VH4/VL5 humanized antibody (human IgG1, kappa) (antibody, V domains shown) VH: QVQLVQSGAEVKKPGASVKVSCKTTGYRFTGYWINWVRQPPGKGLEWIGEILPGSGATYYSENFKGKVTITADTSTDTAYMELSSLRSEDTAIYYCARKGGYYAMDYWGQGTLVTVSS VL: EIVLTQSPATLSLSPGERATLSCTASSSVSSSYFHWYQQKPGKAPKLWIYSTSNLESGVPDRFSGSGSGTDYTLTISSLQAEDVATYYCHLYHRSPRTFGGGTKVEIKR",
    "Relative KD (fold vs VH0/VL0)": 2.2
  },
  {
    "BINDER": "anti-GITR 51B VH5/VL1 humanized antibody (human IgG1, kappa) (antibody, V domains shown) VH: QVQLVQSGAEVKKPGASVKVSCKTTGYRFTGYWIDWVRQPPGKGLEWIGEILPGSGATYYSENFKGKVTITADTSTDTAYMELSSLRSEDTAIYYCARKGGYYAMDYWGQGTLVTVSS VL: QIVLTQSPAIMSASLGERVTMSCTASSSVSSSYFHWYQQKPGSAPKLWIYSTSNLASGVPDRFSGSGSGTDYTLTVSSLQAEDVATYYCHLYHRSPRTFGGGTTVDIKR",
    "Relative KD (fold vs VH0/VL0)": 3.4
  },
  {
    "BINDER": "anti-GITR 51B VH2/VL4 humanized antibody (human IgG1, kappa) (antibody, V domains shown) VH: QVQLVQSGAEVKKPGASVKLSCKTTGYRFTGYWIEWVRQPPGKGLEWIGEILPGSGATYYSENFKGKATITADTSTNTAYMEVSSLRSEDTAIYYCARKGGYYAMDYWGQGTLVTVSS VL: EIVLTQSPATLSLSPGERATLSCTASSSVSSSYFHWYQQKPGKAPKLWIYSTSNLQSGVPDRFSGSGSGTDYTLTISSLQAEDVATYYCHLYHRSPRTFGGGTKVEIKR",
    "Relative KD (fold vs VH0/VL0)": 2
  }
]

Next binder, please.
Q. Given anti-GITR 51B VH3/VL1 humanized antibody (human IgG1, kappa) (antibody, V domains shown) VH: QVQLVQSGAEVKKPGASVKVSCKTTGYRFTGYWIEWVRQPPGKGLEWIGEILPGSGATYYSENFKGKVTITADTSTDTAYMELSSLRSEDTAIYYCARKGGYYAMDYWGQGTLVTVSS VL: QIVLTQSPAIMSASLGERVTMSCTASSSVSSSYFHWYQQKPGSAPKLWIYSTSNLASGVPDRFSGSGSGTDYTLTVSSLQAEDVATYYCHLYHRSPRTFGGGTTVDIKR , respond with its Relative KD (fold vs VH0/VL0).
A. 1.2
